- conditionsUsed: pH 4.7, aqueous buffer
Peptide text beside a SMILES is read from it. * marks the point of attachment. X3 = Nc1c(S(=O)(=O)O)cc2c3c(cc(S(=O)(=O)O)cc13)C(=O)N(CCCCCN*)C2=O; Dabcyl = CN(C)c1ccc(N=Nc2ccc(C(=O)*)cc2)cc1; GABA = NCCCC(=O)O
observationType: solubility

Problem: Request the reported solubility associated with CC[C@H](C)[C@H](NC(=O)[C@@H]1CCCN1C(=O)[C@H](Cc1ccc(O)cc1)NC(=O)[C@H](CC(N)=O)NC(=O)[C@H](CCC(N)=O)NC(=O)[C@H](CO)NC(=O)CCCNC(=O)c1ccc(N=Nc2ccc(N(C)C)cc2)cc1)C(=O)N[C@H](C(=O)N[C@@H](CCC(N)=O)C(=O)NCCCCCN1C(=O)c2cc(S(=O)(=O)O)cc3c(N)c(S(=O)(=O)O)cc(c23)C1=O)C(C)C ({Dabcyl-GABA}-SQNYPIVQ-X3)
Result: ≥ 350 µM
